Below, each of the sequences is paired with its reported solubility in G1/S (log2) value.
# Test system: HeLa Kyoto;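 further: HeLa Kyoto cells arrested at G1/S by double thymidine block, proteins quantified by TMT10plex mass spectrometry in mild NP-40 versus SDS extracts, three biological replicates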
# assay.text: solubility in G1/S (NP-40 vs SDS abundance) (log2 ratio); higher = more soluble
# condition.context: cell cycle stage: G1/S
Number only, no unit.

See these solved cases before continuing.
1) MAAAALGQIWARKLLSVPWLLCGPRRYASSSFKAADLQLEMTQKPHKKPGPGEPLVFGKTFTDHMLMVEWNDKGWGQPRIQPFQNLTLHPASSSLHYSLQLFEGMKAFKGKDQQVRLFRPWLNMDRMLRSAMRLCLPSFDKLELLECIRRLIEVDKDWVPDAAGTSLYVRPVLIGNEPSLGVSQPTRALLFVILCPVGAYFPGGSVTPVSLLADPAFIRAWVGGVGNYKLGGNYGPTVLVQQEALKRGCEQVLWLYGPDHQLTEVGTMNIFVYWTHEDGVLELVTPPLNGVILPGVVRQSLLDMAQTWGEFRVVERTITMKQLLRALEEGRVREVFGSGTACQVCPVHRILYKDRNLHIPTMENGPELILRFQKELKEIQYGIRAHEWMFPV [BCAT2] :: -0.077
2) MDSALSDPHNGSAEAGGPTNSTTRPPSTPEGIALAYGSLLLMALLPIFFGALRSVRCARGKNASDMPETITSRDAARFPIIASCTLLGLYLFFKIFSQEYINLLLSMYFFVLGILALSHTISPFMNKFFPASFPNRQYQLLFTQGSGENKEEIINYEFDTKDLVCLGLSSIVGVWYLLRKHWIANNLFGLAFSLNGVELLHLNNVSTGCILLGGLFIYDVFWVFGTNVMVTVAKSFEAPIKLVFPQDLLEKGLEANNFAMLGLGDVVIPGIFIALLLRFDISLKKNTHTYFYTSFAAYIFGLGLTIFIMHIFKHAQPALLYLVPACIGFPVLVALAKGEVTEMFSYEESNPKDPAAVTESKEGTEASASKGLEKKEK [HM13] :: -0.106
3) MKRQGASSERKRARIPSGKAGAANGFLMEVCVDSVESAVNAERGGADRIELCSGLSEGGTTPSMGVLQVVKQSVQIPVFVMIRPRGGDFLYSDREIEVMKADIRLAKLYGADGLVFGALTEDGHIDKELCMSLMAICRPLPVTFHRAFDMVHDPMAALETLLTLGFERVLTSGCDSSALEGLPLIKRLIEQAKGRIVVMPGGGITDRNLQRILEGSGATEFHCSARSTRDSGMKFRNSSVAMGASLSCSEYSLKVTDVTKVRTLNAIAKNILV [CUTC] :: -0.00165
4) MDGETAEEQGGPVPPPVAPGGPGLGGAPGGRREPKKYAVTDDYQLSKQVLGLGVNGKVLECFHRRTGQKCALKLLYDSPKARQEVDHHWQASGGPHIVCILDVYENMHHGKRCLLIIMECMEGGELFSRIQERGDQAFTEREAAEIMRDIGTAIQFLHSHNIAHRDVKPENLLYTSKEKDAVLKLTDFGFAKETTQNALQTPCYTPYYVAPEVLGPEKYDKSCDMWSLGVIMYILLCGFPPFYSNTGQAISPGMKRRIRLGQYGFPNPEWSEVSEDAKQLIRLLLKTDPTERLTITQFMNHPWINQSMVVPQTPLHTARVLQEDKDHWDEVKEEMTSALATMRVDYDQVKIKDLKTSNNRLLNKRRKKQAGSSSASQGCNNQ [MAPKAPK3] :: 0.454
5) MQREEKQLEASLDALLSQVADLKNSLGSFICKLENEYGRLTWPSVLDSFALLSGQLNTLNKVLKHEKTPLFRNQVIIPLVLSPDRDEDLMRQTEGRVPVFSHEVVPDHLRTKPDPEVEEQEKQLTTDAARIGADAAQKQIQSLNKMCSNLLEKISKEERESESGGLRPNKQTFNPTDTNALVAAVAFGKGLSNWRPSGSSGPGQAGQPGAGTILAGTSGLQQVQMAGAPSQQQPMLSGVQMAQAGQPGKMPSGIKTNIKSASMHPYQR [MED8] :: 0.142

Query block: Return reported solubility in G1/S (log2); argument: MGFWCRMSENQEQEEVITVRVQDPRVQNEGSWNSYVDYKIFLHTNSKAFTAKTSCVRRRYREFVWLRKQLQRNAGLVPVPELPGKSTFFGTSDEFIEKRRQGLQHFLEKVLQSVVLLSDSQLHLFLQSQLSVPEIEACVQGRSTMTVSDAILRYAMSNCGWAQEERQSSSHLAKGDQPKSCCFLPRSGRRSSPSPPPSEEKDHLEVWAPVVDSEVPSLESPTLPPLSSPLCCDFGRPKEGTSTLQSVRRAVGGDHAVPLDPGQLETVLEK [SNX11]
Result block: 0.38

Query block: Query (sequence): MPLGLKPTCSVCKTTSSSMWKKGAQGEILCHHCTGRGGAGSGGAGSGAAGGTGGSGGGGFGAATFASTSATPPQSNGGGGGKQSKQEIHRRSARLRNTKYKSAPAAEKKVSTKGKGRRHIFKLKNPIKAPESVSTIITAESIFYKGVYYQIGDVVSVIDEQDGKPYYAQIRGFIQDQYCEKSAALTWLIPTLSSPRDQFDPASYIIGPEEDLPRKMEYLEFVCHAPSEYFKSRSSPFPTVPTRPEKGYIWTHVGPTPAITIKESVANHL [GATAD1] ; field requested: solubility in G1/S (log2)
Result block: -0.0455

Query block: Name the recorded solubility in G1/S (log2) for MASSDIQVKELEKRASGQAFELILSPRSKESVPEFPLSPPKKKDLSLEEIQKKLEAAEERRKSHEAEVLKQLAEKREHEKEVLQKAIEENNNFSKMAEEKLTHKMEANKENREAQMAAKLERLREKDKHIEEVRKNKESKDPADETEAD [STMN1] .
Result block: 0.635

Query block: Return reported solubility in G1/S (log2); argument: MADLLGSILSSMEKPPSLGDQETRRKAREQAARLKKLQEQEKQQKVEFRKRMEKEVSDFIQDSGQIKKKFQPMNKIERSILHDVVEVAGLTSFSFGEDDDCRYVMIFKKEFAPSDEELDSYRRGEEWDPQKAEEKRKLKELAQRQEEEAAQQGPVVVSPASDYKDKYSHLIGKGAAKDAAHMLQANKTYGCVPVANKRDTRSIEEAMNEIRAKKRLRQSGEELPPTS [SPAG7]
Result block: 0.68

Query block: Fill in the blank: the reported solubility in G1/S (log2) of MQPQSVLHSGYFHPLLRAWQTATTTLNASNLIYPIFVTDVPDDIQPITSLPGVARYGVKRLEEMLRPLVEEGLRCVLIFGVPSRVPKDERGSAADSEESPAIEAIHLLRKTFPNLLVACDVCLCPYTSHGHCGLLSENGAFRAEESRQRLAEVALAYAKAGCQVVAPSDMMDGRVEAIKEALMAHGLGNRVSVMSYSAKFASCFYGPFRDAAKSSPAFGDRRCYQLPPGARGLALRAVDRDVREGADMLMVKPGMPYLDIVREVKDKHPDLPLAVYHVSGEFAMLWHGAQAGAFDLKAAVLEAMTAFRRAGADIIITYYTPQLLQWLKEE [ALAD] is ____.
Result block: 0.106
